meta.source: patent US20190185417A1

Tested on: Klebsiella pneumoniae (ATCC 43816)
Assay: MIC by broth microdilution
Type: cell-based
Conditions: Table 2, Example 2
experimental_readout: MIC

The recorded MIC for CN(C)c1ccc(CCc2cc(CCc3ccc(N(C)C)cc3)cc(CCc3ccc(N(C)C)cc3)c2)cc1 is >32.0 µg/mL

Quick note, MIC for NC(=O)c1ccc(CCc2cc(CCc3ccc(C(N)=O)cc3)cc(CCc3ccc(C(N)=O)cc3)c2)cc1 landed at >32.0 µg/mL

// CN(C)Cc1ccc(/C=C/c2cc(/C=C/c3ccc(CC(N)=O)cc3)cc(/C=C/c3ccc(CC(N)=O)cc3)c2)cc1 : MIC value = >128 µg/mL

Short answer for O=[N+]([O-])c1ccc(CCc2cc(CCc3ccc([N+](=O)[O-])cc3)cc(CCc3ccc([N+](=O)[O-])cc3)c2)cc1 : MIC was >32.0 µg/mL
